Each item that follows carries a reported IP (isoelectric point).
# protocol-summary: Isoelectric point, log D and log P (SiriusT3)
# Type: physicochemical
# condition-description: 25±1° C., 0.15 M KCl
Residues, ends and D or L forms follow the SMILES beside them.
Respond using a number only.

Look over these answered cases.
• CC[C@H](C)[C@H](NC(C)=O)C(=O)N[C@@H](Cc1c[nH]cn1)C(=O)N[C@H](C(=O)N[C@H](C(=O)N[C@H](C(=O)N1CCC[C@H]1C(=O)N[C@@H](C)C(=O)N[C@@H](CC(=O)O)C(=O)N[C@@H](CC(C)C)C(=O)N[C@@H](Cc1c[nH]c2ccccc12)C(=O)N[C@@H](CC(=O)O)C(=O)N[C@@H](Cc1c[nH]c2ccccc12)C(=O)N[C@H](C(=O)N[C@@H](CC(N)=O)C(=O)N[C@@H](CCCCN)C(N)=O)C(C)C)[C@@H](C)CC)[C@@H](C)O)C(C)C [SEQ ID NO: 8] (Ac-IHVTIPADLWDWVNK-NH2) = 5.14
• CC[C@H](C)[C@H](NC(=O)[C@H](Cc1c[nH]c2ccccc12)NC(=O)[C@H](CCC(=O)O)NC(=O)[C@H](Cc1ccc(O)cc1)NC(=O)[C@H](CC(C)C)NC(=O)[C@H](CC(=O)O)NC(=O)[C@H](C)NC(=O)[C@@H]1CCCN1C(=O)[C@@H](NC(=O)[C@@H](NC(=O)[C@@H](NC(=O)[C@H](CCSC)NC(=O)[C@@H](NC(C)=O)C(C)C)C(C)C)[C@@H](C)O)[C@@H](C)CC)C(=O)N[C@@H](CCC(=O)O)C(=O)N[C@@H](CCC(=O)O)C(N)=O [SEQ ID NO: 18] (Ac-VMVTIPADLYEWIEE-NH2) = 3.55
• CC[C@H](C)[C@H](NC(C)=O)C(=O)N[C@@H](Cc1c[nH]cn1)C(=O)N[C@H](C(=O)N[C@H](C(=O)N[C@H](C(=O)N1CCC[C@H]1C(=O)N[C@@H](C)C(=O)N[C@@H](CC(=O)O)C(=O)N[C@@H](CC(C)C)C(=O)N[C@@H](Cc1ccc(O)cc1)C(=O)N[C@@H](CCC(=O)O)C(=O)N[C@@H](Cc1c[nH]c2ccccc12)C(=O)N[C@H](C(=O)N[C@@H](CC(N)=O)C(=O)N[C@@H](CCCCN)C(N)=O)[C@@H](C)CC)[C@@H](C)CC)[C@@H](C)O)C(C)C [SEQ ID NO: 13] (Ac-IHVTIPADLYEWINK-NH2) = 6.06

In the following, a different molecule is considered.
Prompt: For the molecule CC[C@H](C)[C@H](NC(=O)[C@H](CCC(N)=O)NC(=O)[C@@H](NC(=O)[C@H](Cc1c[nH]cn1)NC(=O)[C@@H](NC(C)=O)C(C)C)C(C)C)C(=O)N1CCC[C@H]1C(=O)N[C@@H](C)C(=O)N[C@@H](CC(=O)O)C(=O)N[C@@H](CC(C)C)C(=O)N[C@@H](Cc1c[nH]c2ccccc12)C(=O)N[C@@H](CCC(=O)O)C(=O)N[C@@H](Cc1c[nH]c2ccccc12)C(=O)N[C@H](C(=O)N[C@@H](CCCNC(=N)N)C(=O)N[C@@H](CCCNC(=N)N)C(N)=O)C(C)C [SEQ ID NO: 113] (Ac-VHVQIPADLWEWVRR-NH2) , what IP (isoelectric point) is on record?
Response: 8.99

###

# study-target: IL-17RA/IL17RC dimerization induced by IL-17A (Homo sapiens, UniProt Q16552)
# Sequence (Q16552 24-155): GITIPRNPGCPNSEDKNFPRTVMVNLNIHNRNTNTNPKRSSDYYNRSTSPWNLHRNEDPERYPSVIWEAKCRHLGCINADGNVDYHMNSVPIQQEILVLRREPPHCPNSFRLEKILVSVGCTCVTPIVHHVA
# protocol-summary: IL-17RA/IL17RC dimerization assay in response to IL-17A (PathHunter Cytokine Receptor Assay)
# Assay type: cell-based
# condition-description: IL-17A at EC80; read-out: IC50 in IL-17RA/IL7RC dimerization assay
Residues, ends and D or L forms follow the SMILES beside them.
value-type: IC50

Prompt: Find the recorded IC50 belonging to CC[C@H](C)[C@H](NC(C)=O)C(=O)N[C@@H](Cc1c[nH]cn1)C(=O)N[C@H](C(=O)N[C@@H](CCC(N)=O)C(=O)N[C@H](C(=O)N1CCC[C@H]1C(=O)N[C@@H](C)C(=O)N[C@@H](CC(=O)O)C(=O)N[C@@H](CC(C)C)C(=O)N[C@@H](Cc1c[nH]c2ccccc12)C(=O)N[C@@H](CC(=O)O)C(=O)N[C@@H](Cc1c[nH]c2ccccc12)C(=O)N[C@H](C(=O)N[C@@H](CC(N)=O)C(=O)N[C@@H](CCCCN)C(N)=O)[C@@H](C)CC)[C@@H](C)CC)C(C)C [SEQ ID NO: 178] (Ac-IHVQIPADLWDWINK-NH2) and report it.
Response: < 10 µM

###

# study-target: IL-17RA/IL17RC dimerization induced by IL-17A (Homo sapiens, UniProt Q16552)
# protocol-summary: IL-17RA/IL17RC dimerization assay in response to IL-17A (PathHunter Cytokine Receptor Assay)
# Type: cell-based
# condition-description: IL-17A at EC80; read-out: IC50 in IL-17RA/IL7RC dimerization assay
pIC50: −log10 of the molar value. Residues, ends and D or L forms follow the SMILES beside them.
value-type: pIC50

Prompt: Entry CC[C@H](C)[C@H](NC(C)=O)C(=O)N[C@@H](Cc1c[nH]cn1)C(=O)N[C@H](C(=O)N[C@H](C(=O)N[C@H](C(=O)N1CCC[C@H]1C(=O)N[C@@H](C)C(=O)N[C@@H](CC(=O)O)C(=O)N[C@@H](CC(C)C)C(=O)N[C@@H](Cc1c[nH]c2ccccc12)C(=O)N[C@@H](CC(=O)O)C(=O)N[C@@H](Cc1c[nH]c2ccccc12)C(=O)N[C@H](C(=O)N[C@@H](CCC(=O)O)C(=O)N[C@@H](CCC(=O)O)C(N)=O)C(C)C)[C@@H](C)CC)[C@@H](C)O)C(C)C [SEQ ID NO: 15] (Ac-IHVTIPADLWDWVEE-NH2) has what pIC50?
Response: > 6.40

###

# protocol-summary: Isoelectric point, log D and log P (SiriusT3)
# Assay type: physicochemical
# condition-description: octanol/ISA water; read-out: logP
Residues, ends and D or L forms follow the SMILES beside them.
value-type: logP

• CC[C@H](C)[C@H](NC(=O)[C@@H](NC(=O)[C@H](Cc1ccccc1)NC(=O)[C@H](Cc1c[nH]cn1)NC(=O)[C@@H](NC(C)=O)C(C)C)[C@@H](C)O)C(=O)N1CCC[C@H]1C(=O)N[C@@H](C)C(=O)N[C@@H](CC(=O)O)C(=O)N[C@@H](CC(C)C)C(=O)N[C@@H](Cc1c[nH]c2ccccc12)C(=O)N[C@@H](CCC(=O)O)C(=O)N[C@@H](Cc1c[nH]c2ccccc12)C(=O)N[C@H](C(=O)N[C@@H](CCCNC(=N)N)C(=O)N[C@@H](CCCNC(=N)N)C(N)=O)C(C)C [SEQ ID NO: 112] (Ac-VHFTIPADLWEWVRR-NH2) = -4.76
• CC[C@H](C)[C@H](NC(=O)[C@@H](NC(=O)[C@@H](NC(=O)[C@H](Cc1c[nH]cn1)NC(=O)[C@@H](NC(C)=O)C(C)C)C(C)C)[C@@H](C)O)C(=O)N1CCC[C@H]1C(=O)N[C@@H](CCC(N)=O)C(=O)N[C@@H](CC(=O)O)C(=O)N[C@@H](CC(C)C)C(=O)N[C@@H](Cc1c[nH]c2ccccc12)C(=O)N[C@@H](CCC(=O)O)C(=O)N[C@@H](Cc1c[nH]c2ccccc12)C(=O)N[C@H](C(=O)N[C@@H](CCCNC(=N)N)C(=O)N[C@@H](CCCNC(=N)N)C(N)=O)C(C)C [SEQ ID NO: 115] (Ac-VHVTIPQDLWEWVRR-NH2) = -5.94
• CC[C@H](C)[C@H](NC(=O)[C@H](Cc1c[nH]c2ccccc12)NC(=O)[C@H](CC(=O)O)NC(=O)[C@H](Cc1c[nH]c2ccccc12)NC(=O)[C@H](CC(C)C)NC(=O)[C@H](CC(=O)O)NC(=O)[C@H](C)NC(=O)[C@@H]1CCCN1C(=O)[C@@H](NC(=O)[C@@H](NC(=O)[C@@H](NC(=O)[C@H](Cc1c[nH]cn1)NC(=O)[C@@H](NC(C)=O)C(C)C)C(C)C)[C@@H](C)O)[C@@H](C)CC)C(=O)N[C@@H](CC(N)=O)C(=O)N[C@@H](CCCCN)C(N)=O [SEQ ID NO: 2] (Ac-VHVTIPADLWDWINK-NH2) = 0.99

Would you kindly look at the next entry?
Prompt: What value of measured logP is listed for CC[C@H](C)[C@H](NC(=O)[C@H](Cc1c[nH]c2ccccc12)NC(=O)[C@H](CCC(=O)O)NC(=O)[C@H](Cc1ccc(O)cc1)NC(=O)[C@H](CC(C)C)NC(=O)[C@H](CC(=O)O)NC(=O)[C@H](C)NC(=O)[C@@H]1CCCN1C(=O)[C@@H](NC(=O)[C@@H](NC(=O)[C@@H](NC(=O)[C@H](CCSC)NC(=O)[C@@H](NC(C)=O)C(C)C)C(C)C)[C@@H](C)O)[C@@H](C)CC)C(=O)N[C@@H](CC(N)=O)C(=O)N[C@@H](CCCCN)C(N)=O [SEQ ID NO: 16] (Ac-VMVTIPADLYEWINK-NH2) ?
Response: 0.13

# credit: patent US11236129B2
